// data source = patent US20250179028A1

target: CYP2D6 (Homo sapiens (Human), UniProt P10635); experiment: Cytochrome P450 CYP2D6 inhibition in human liver microsomes; assay type: in vitro ADME; conditions: probe dextromethorphan 2 µM (dextrorphan formation); 1 uM test compound, human liver microsomes; average value from two experiments; negative values = no effective inhibition
Sequence (P10635 whole entry): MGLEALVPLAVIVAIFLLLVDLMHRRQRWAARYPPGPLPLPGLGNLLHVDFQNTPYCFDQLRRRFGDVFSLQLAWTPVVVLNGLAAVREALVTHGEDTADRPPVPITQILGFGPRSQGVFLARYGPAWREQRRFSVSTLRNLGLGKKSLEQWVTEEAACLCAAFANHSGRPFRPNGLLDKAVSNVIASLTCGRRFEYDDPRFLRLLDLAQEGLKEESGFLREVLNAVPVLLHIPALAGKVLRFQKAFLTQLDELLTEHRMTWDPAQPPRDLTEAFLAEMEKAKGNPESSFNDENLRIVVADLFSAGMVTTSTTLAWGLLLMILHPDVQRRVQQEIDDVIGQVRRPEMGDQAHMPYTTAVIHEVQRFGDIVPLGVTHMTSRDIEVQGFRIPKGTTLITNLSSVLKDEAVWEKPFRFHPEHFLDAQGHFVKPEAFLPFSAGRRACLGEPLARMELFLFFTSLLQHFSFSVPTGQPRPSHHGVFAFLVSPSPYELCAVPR
measured-quantity: inhibition at 20 min, 1 µM (%)
Note: unit % is implicit; provide only the numeric part.

# lookup: inhibition at 20 min, 1 µM of CO[C@H]1Cc2ccccc2[C@@H]1NC(=O)/C=C/c1ccc2c(Cl)n[nH]c2c1 [Example 72]
9.98

State the recorded inhibition at 20 min, 1 µM for this entry: Cc1n[nH]c2cc(/C=C/C(=O)NC3CCc4ccccc43)cc(F)c12 (stereo not drawn) [Example 34]
4.37

If you can, please state the reported inhibition at 20 min, 1 µM value of CC1Cc2ccccc2C1NC(=O)/C=C/c1ccc2c(c1)NC(=O)C2 (stereo not drawn) [Example 21] .
0.91

Please look up its inhibition at 20 min, 1 µM: COCc1c(F)cccc1NC(=O)/C=C/c1ccc2c(C)n[nH]c2c1 [Example 50]
1.3

Please look up its inhibition at 20 min, 1 µM: Cc1c(F)cccc1NC(=O)/C=C/c1ccc2c(c1)NC(=O)C21CC1 [Example 4]
2.89

So what's the measured inhibition at 20 min, 1 µM for this one? CC1CCCC1NC(=O)/C=C/c1ccc2oc(=O)[nH]c2c1 (stereo not drawn) [Example 49]
4.52

Name the reported inhibition at 20 min, 1 µM value associated with the molecule Cc1cc(NC(=O)/C=C/c2ccc3c(C)n[nH]c3c2)ccc1F [Example 41]
1.2

// inhibition at 20 min, 1 µM lookup, key: Cc1c(Cl)cccc1NC(=O)/C=C/c1ccc2oc(=O)[nH]c2c1 [Example 9]
-2.59

Reported inhibition at 20 min, 1 µM for Cc1cccc(C)c1NC(=O)/C=C/c1ccc2c(C)n[nH]c2c1 [Example 31] : what is it?
19.9

Which inhibition at 20 min, 1 µM is reported for this molecule? O=C(/C=C/c1ccc2oc(=O)[nH]c2c1)NC1CCc2ccccc21 (stereo not drawn) [Example 11]
-0.63

Could you tell me which inhibition at 20 min, 1 µM is on file for Cc1ccccc1NC(=O)/C=C/c1ccc2oc(=O)[nH]c2c1 [Example 12] ?
3.05

For the molecule shown here, Cc1c(F)cccc1NC(=O)/C=C/c1ccc2c(c1F)NC(=O)C2 [Example 5] , give the reported inhibition at 20 min, 1 µM.
-2.57

Item CC(C)c1ccccc1NC(=O)/C=C/c1ccc2oc(=O)[nH]c2c1 [Example 13] has what recorded inhibition at 20 min, 1 µM?
3.84

I am curious: what inhibition at 20 min, 1 µM value has been reported for Cc1c(F)cccc1NC(=O)/C=C/c1ccc2c(c1)[nH]c(=O)n2C1CC1 [Example 23] ?
0.7

So what's the measured inhibition at 20 min, 1 µM for this one? Cc1c(F)cccc1NC(=O)/C=C/c1cc(F)c2c(c1)NC(=O)C2 [Example 18]
1.2

Consider the molecule shown here: Cc1n[nH]c2cc(/C=C/C(=O)NC3CCc4ccccc43)ccc12 (stereo not drawn) [Example 25] What is its recorded inhibition at 20 min, 1 µM?
2.05

Item Cc1c(F)cccc1NC(=O)/C=C/c1ccc2cn[nH]c2c1 [Comparative Example 1, reference compound] has what recorded inhibition at 20 min, 1 µM?
86.5

I have this molecule here, CC1Cc2ccccc2C1NC(=O)/C=C/c1ccc2c(C#N)n[nH]c2c1 (stereo not drawn) [Example 44] , and I need its recorded inhibition at 20 min, 1 µM.
8.94

Any idea what inhibition at 20 min, 1 µM was measured for CO[C@H]1Cc2ccccc2[C@@H]1NC(=O)/C=C/c1ccc2c(C#N)n[nH]c2c1 [Example 74] ?
7.5

Recorded inhibition at 20 min, 1 µM for Cc1c(F)cccc1NC(=O)/C=C/c1ccc2c(c1)NC(=O)C2C (stereo not drawn) [Example 8] , please?
3.13

Requested read-out: inhibition at 20 min, 1 µM. Entry: Cc1c(F)cccc1NC(=O)/C=C/c1ccc2c(c1)[nH]c(=O)n2C [Example 7]
2.27

Field request: inhibition at 20 min, 1 µM | item: Cc1c(F)cccc1NC(=O)/C=C/c1ccc2c(C)n[nH]c2c1 [Example 37]
5.04

Fill in: inhibition at 20 min, 1 µM of Cc1c(F)cc(F)c(C)c1NC(=O)/C=C/c1ccc2c(c1)NC(=O)C2 [Example 35] is ___
2.83

Look up inhibition at 20 min, 1 µM: CO[C@H]1Cc2ccccc2[C@@H]1NC(=O)/C=C/c1ccc2c(C)n[nH]c2c1 [Example 54]
8.2

If you can, please state the reported inhibition at 20 min, 1 µM value of Cn1c(=O)[nH]c2cc(/C=C/C(=O)NC3CCc4ccccc43)ccc21 (stereo not drawn) [Example 24] .
0.77

Which inhibition at 20 min, 1 µM is listed for CO[C@H]1Cc2ccccc2[C@@H]1NC(=O)/C=C/c1ccc2c(F)n[nH]c2c1 [Example 73] ?
34.6

Given the molecule O=C(/C=C/c1cc2[nH]nnc2cc1F)NC1CCc2ccccc21 (stereo not drawn) [Example 27] , what is its reported inhibition at 20 min, 1 µM?
14.3

# query: inhibition at 20 min, 1 µM of entry Cc1ccc(F)c(C)c1NC(=O)/C=C/c1ccc2c(c1)NC(=O)C2 [Example 20]
-1.76

# get_value(readout='inhibition at 20 min, 1 µM', item= Cc1cccc(C(C)C)c1NC(=O)/C=C/c1ccc2oc(=O)[nH]c2c1 [Example 14] )
-0.52

Consider the molecule Cc1c(Cl)cccc1N(C)C(=O)/C=C/c1ccc2oc(=O)[nH]c2c1 [Example 48] and give its measured inhibition at 20 min, 1 µM.
6.34

// returns reported inhibition at 20 min, 1 µM for input Cc1n[nH]c2cc(/C=C/C(=O)NC3CCc4cc(F)ccc43)ccc12 (stereo not drawn) [Example 40]
6.65

What does the data say about its inhibition at 20 min, 1 µM? Entry: Cc1cccc(C)c1NC(=O)/C=C/c1ccc2c(c1)[nH]c(=O)n2C [Example 29]
-3.03

Using the record for Cc1c(F)cccc1NC(=O)/C=C/c1ccc2c(c1)NC(=O)C2(C)C [Example 3] , report its inhibition at 20 min, 1 µM.
-1.87

Tell me the measured inhibition at 20 min, 1 µM of CCc1n[nH]c2cc(/C=C/C(=O)NC3CCc4ccccc43)ccc12 (stereo not drawn) [Example 32] , please.
4.01

# get_value(readout='inhibition at 20 min, 1 µM', item= Cc1c(F)cccc1NC(=O)/C=C/c1ccc2oc(=O)[nH]c2c1 [Example 6] )
5.08

Fill in the blank: the reported inhibition at 20 min, 1 µM of CCn1c(=O)[nH]c2cc(/C=C/C(=O)Nc3cccc(F)c3C)ccc21 [Example 22] is ____.
2.05

====

Kindly supply the reported hepatocyte CLint at 1 µM values for the records listed here.
assay: Hepatocyte clearance assay, rat; type: in vitro ADME; conditions: cryopreserved primary rat hepatocytes, average value from two experiments, read-out: Rat heps Clint
Value expressed in µL/min/1e6 cells; do not type the unit.

What does the data say about its hepatocyte CLint at 1 µM? Entry: Cc1c(F)cccc1NC(=O)/C=C/c1ccc2c(c1)NC(=O)C2 [Example 10]
21.1

Give its hepatocyte CLint at 1 µM value. Item: Cc1ccc(F)c(C)c1NC(=O)/C=C/c1ccc2c(c1)[nH]c(=O)n2C [Example 30]
12.1

For the molecule COc1cc(C)c(NC(=O)/C=C/c2cc3[nH]nc(Cl)c3cc2F)c(C)n1 [Example 96] , what hepatocyte CLint at 1 µM is on record?
13

Which hepatocyte CLint at 1 µM value belongs to CO[C@H]1Cc2ccccc2[C@@H]1NC(=O)/C=C/c1ccc2c(C)n[nH]c2c1 [Example 54] ?
39.4

Which value of hepatocyte CLint at 1 µM has been reported for CCO[C@H]1Cc2ccccc2[C@@H]1NC(=O)/C=C/c1ccc2c(C)n[nH]c2c1 [Example 69] in the records?
73

So what does the record say about hepatocyte CLint at 1 µM for COc1cc(C)c(NC(=O)/C=C/c2cc3[nH]nc(C)c3cc2F)c(C)n1 [Example 95] ?
5

I'd like to know its hepatocyte CLint at 1 µM. The molecule in question is Cc1c(F)cccc1NC(=O)/C=C/c1ccc2c(C#N)n[nH]c2c1 [Example 51]
48.1

# query: hepatocyte CLint at 1 µM of entry Cc1c(F)cccc1NC(=O)/C=C/c1ccc2c(c1F)NC(=O)C2 [Example 5]
27

Name the reported hepatocyte CLint at 1 µM value associated with the molecule Cc1c(F)cccc1NC(=O)/C=C/c1ccc2c(c1)[nH]c(=O)n2C1CC1 [Example 23]
35.7

Quick one: hepatocyte CLint at 1 µM of Cc1ccc(F)c(C)c1NC(=O)/C=C/c1ccc2c(c1)NC(=O)C2 [Example 20] ?
11.9

Value lookup for hepatocyte CLint at 1 µM; key = N#Cc1n[nH]c2cc(/C=C/C(=O)NC3CCc4ccccc43)ccc12 (stereo not drawn) [Example 26]
87.5

Field request: hepatocyte CLint at 1 µM | item: COc1cc(C)c(NC(=O)/C=C/c2cc3[nH]nc(C#N)c3cc2F)c(C)n1 [Example 98]
7

Find the recorded hepatocyte CLint at 1 µM belonging to Cc1ncc(F)c(C)c1NC(=O)/C=C/c1ccc2c(C)n[nH]c2c1 [Example 113] and report it.
3

Quick one: hepatocyte CLint at 1 µM for Cc1c(F)cccc1NC(=O)/C=C/c1ccc2c(C)n[nH]c2c1 [Example 37] ?
87.6

Bench note: what hepatocyte CLint at 1 µM did Cc1cc(F)c(F)c(C)c1NC(=O)/C=C/c1ccc2c(c1)NC(=O)C2 [Example 36] show?
9.41

Entry Cc1c(F)cccc1NC(=O)/C=C/c1ccc2oc(=O)[nH]c2c1 [Example 6] has what hepatocyte CLint at 1 µM?
53.3

Value lookup for hepatocyte CLint at 1 µM; key = COc1n[nH]c2cc(/C=C/C(=O)N[C@H]3c4ccccc4C[C@@H]3OC)ccc12 [Example 71]
72

For the molecule Cc1n[nH]c2cc(/C=C/C(=O)N[C@H]3c4ccccc4C[C@@H]3OCCF)ccc12 [Example 68] , what hepatocyte CLint at 1 µM is on record?
34.9
